src = ChEMBL document CHEMBL5352426

Listing: CLH of selected compounds
# METHOD_DESCRIPTION: Metabolic stability in mouse liver microsome assessed as hepatic clearance
# Format: ADME
# APPLIED_CONDITIONS: microsomes

For orientation, consider the following solved cases.
# COMPOUND, TEST_READOUT, READOUT_VALUE
rows = [
    ("COc1cc2c(OCCCc3cn([C@H]4O[C@@H](C)[C@H](OC(C)=O)[C@@H](OC(C)=O)[C@H]4OC(C)=O)nn3)c3c(c(-c4ccc5c(c4)OCO5)c2cc1OC)C(=O)OC3", "CLH", "> 83.2 mL/min/kg"),
    ("COc1cc2c(O)c3c(c(-c4ccc5c(c4)OCO5)c2cc1OC)C(=O)OC3 [DIPHYLLIN]", "CLH", "> 83.2 mL/min/kg"),
]

Turning now to a further record.
Input: CLH for `COc1cc2c(N)c3c(c(-c4ccc5c(c4)OCO5)c2cc1OC)C(=O)OC3` ?
Output: 61.3 mL/min/kg
